Biological target: T1, cynomolgus ROR1 on CHO-K1-cynoROR1 cells (cynomolgus monkey, UniProt A0A2K5WTX7 30-937)
T1 construct: whole, on cells
Experiment: flow cytometry, CHO-K1-cynoROR1 cells

binder: PR303147 (antibody, human IgG1, V domains shown, HCAb (heavy chain-only, human IgG1 Fc), no light chain) VH: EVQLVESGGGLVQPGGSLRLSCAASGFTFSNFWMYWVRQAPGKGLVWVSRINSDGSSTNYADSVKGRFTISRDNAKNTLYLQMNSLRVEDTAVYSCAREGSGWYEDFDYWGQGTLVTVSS
EC50 (µg/mL): 1.26
--
binder: PR000374 (antibody, human IgG1, kappa, V domains shown, positive control; also called Bench marker 1) VH: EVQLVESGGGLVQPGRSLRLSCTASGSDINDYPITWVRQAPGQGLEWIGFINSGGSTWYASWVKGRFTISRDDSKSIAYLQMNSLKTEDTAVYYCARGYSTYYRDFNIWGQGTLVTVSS VL: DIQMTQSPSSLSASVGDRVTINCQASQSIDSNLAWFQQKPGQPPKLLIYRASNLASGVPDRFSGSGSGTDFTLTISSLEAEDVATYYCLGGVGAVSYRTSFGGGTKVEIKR
EC50 (µg/mL): 0.314
--
binder: PR303201 (antibody, human IgG1, V domains shown, HCAb (heavy chain-only, human IgG1 Fc), no light chain) VH: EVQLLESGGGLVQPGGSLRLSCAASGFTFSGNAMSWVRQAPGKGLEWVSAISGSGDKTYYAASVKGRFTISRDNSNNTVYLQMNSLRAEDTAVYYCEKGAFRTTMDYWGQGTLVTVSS
EC50 (µg/mL): 0.057
--
binder: PR303155 (antibody, human IgG1, V domains shown, HCAb (heavy chain-only, human IgG1 Fc), no light chain) VH: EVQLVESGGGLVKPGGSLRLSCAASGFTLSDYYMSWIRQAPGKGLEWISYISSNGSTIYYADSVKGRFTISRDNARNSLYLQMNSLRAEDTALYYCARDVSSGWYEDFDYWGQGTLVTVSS
EC50 (µg/mL): 0.804
--
binder: PR303199 (antibody, human IgG1, V domains shown, HCAb (heavy chain-only, human IgG1 Fc), no light chain) VH: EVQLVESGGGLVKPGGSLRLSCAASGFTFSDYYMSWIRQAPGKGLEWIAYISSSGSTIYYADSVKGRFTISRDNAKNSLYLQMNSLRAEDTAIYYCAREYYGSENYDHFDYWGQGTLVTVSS
EC50 (µg/mL): 1.43
